Each record here notes measured pIC50.
biological target: Trifunctional purine biosynthetic protein adenosine-3 (Homo sapiens, UniProt P22102); assay: Inhibition of GARFTase in human KB cells expressing FRalpha/PCFT/RFC assessed as incorporation of [14C(U)]-glycine into [14C]-formyl GAR preincubated for 1 hr followed by azaserine, L-glutamine, 14C(U)]-glycine addition measured after 16 hrs
Sequence (P22102 whole entry): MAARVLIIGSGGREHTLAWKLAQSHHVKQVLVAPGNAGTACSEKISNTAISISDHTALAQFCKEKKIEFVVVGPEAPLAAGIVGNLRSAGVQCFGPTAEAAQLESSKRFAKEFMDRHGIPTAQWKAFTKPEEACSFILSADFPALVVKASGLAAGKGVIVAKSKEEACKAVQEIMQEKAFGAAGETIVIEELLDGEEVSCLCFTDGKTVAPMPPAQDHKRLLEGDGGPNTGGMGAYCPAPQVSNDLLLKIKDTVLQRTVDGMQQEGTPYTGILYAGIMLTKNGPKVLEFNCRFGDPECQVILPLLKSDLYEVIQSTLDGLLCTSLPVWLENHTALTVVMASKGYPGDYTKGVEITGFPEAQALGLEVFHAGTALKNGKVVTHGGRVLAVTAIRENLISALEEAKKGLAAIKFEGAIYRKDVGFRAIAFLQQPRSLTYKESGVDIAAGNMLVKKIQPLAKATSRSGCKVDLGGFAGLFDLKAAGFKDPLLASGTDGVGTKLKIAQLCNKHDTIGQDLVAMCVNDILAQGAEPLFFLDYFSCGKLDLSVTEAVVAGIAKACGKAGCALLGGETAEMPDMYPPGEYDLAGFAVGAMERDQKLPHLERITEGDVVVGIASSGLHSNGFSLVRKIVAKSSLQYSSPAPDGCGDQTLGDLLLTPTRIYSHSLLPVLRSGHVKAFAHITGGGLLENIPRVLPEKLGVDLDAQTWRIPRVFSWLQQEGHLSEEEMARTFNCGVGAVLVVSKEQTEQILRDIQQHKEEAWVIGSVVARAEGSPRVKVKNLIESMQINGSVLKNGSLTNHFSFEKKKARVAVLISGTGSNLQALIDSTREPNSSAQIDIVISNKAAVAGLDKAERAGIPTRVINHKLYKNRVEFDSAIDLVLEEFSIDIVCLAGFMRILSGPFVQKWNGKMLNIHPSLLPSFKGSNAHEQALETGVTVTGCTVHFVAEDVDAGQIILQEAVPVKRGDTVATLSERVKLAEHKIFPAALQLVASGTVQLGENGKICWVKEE
When answering, recall that pIC50 equals minus log10 of the concentration in mol/L, and write that number alone.

>  <RECORD SMILES>
Nc1nc(N)c2c(CCCc3csc(C(=O)N[C@@H](CCC(=O)O)C(=O)O)c3)coc2n1

>  <SUBJECT OF TEST>
Trifunctional purine biosynthetic protein adenosine-3 (Homo sapiens, UniProt P22102)

>  <pIC50>
7.09

$$$$

Prompt: State its pIC50: `Nc1nc2[nH]c(CCCc3csc(C(=O)N[C@@H](CCC(=O)O)C(=O)O)c3)cc2c(=O)[nH]1`
Completion: 8.62

Prompt: State its pIC50: `Nc1nc2[nH]c(CCCc3cc(C(=O)N[C@@H](CCC(=O)O)C(=O)O)cs3)cc2c(=O)[nH]1`
Completion: 8.59

Prompt: State its pIC50: `Nc1nc(N)c2c(CCCc3cc(C(=O)N[C@@H](CCC(=O)O)C(=O)O)cs3)coc2n1`
Completion: 7.00
